Target: DNA polymerase III PolC-type (Staphylococcus aureus) (UniProt P0C1P9)
Test: Inhibition of DNA polymerase3C from Staphylococcus aureus at 100 uM
parameter-measured: inhibition (%)

Solved entries:
N#Cc1ccc(OCCCc2c(O)nc(Nc3ccc4c(c3)CCC4)nc2O)cc1 :: 91
Oc1nc(Nc2ccc3c(c2)CCC3)nc(Cl)c1CCCc1ccccc1 :: 46
O=[N+]([O-])c1ccc(OCCCc2c(O)nc(Nc3ccc4c(c3)CCC4)nc2O)nc1 :: 85

[P] Oc1nc(Nc2ccc3c(c2)CCC3)nc(O)c1CCCCOc1ccccc1
[Q] C=CCc1c(N)nc(Nc2ccc(C)c(CC)c2)nc1O
Query: Which numeric inhibition is bigger, that of P or that of Q ? Field: selected label. Fill in the label of the entry you choose.
Result: P
(P: 67%, Q: 32%)
